# MEASUREMENT TARGET: full-length beta-Catenin (Uniprot ID P35222) (Homo sapiens, UniProt P35222)
# Construct: 10 nM full-length beta-Catenin (Uniprot ID P35222)
# Sequence (P35222 whole entry): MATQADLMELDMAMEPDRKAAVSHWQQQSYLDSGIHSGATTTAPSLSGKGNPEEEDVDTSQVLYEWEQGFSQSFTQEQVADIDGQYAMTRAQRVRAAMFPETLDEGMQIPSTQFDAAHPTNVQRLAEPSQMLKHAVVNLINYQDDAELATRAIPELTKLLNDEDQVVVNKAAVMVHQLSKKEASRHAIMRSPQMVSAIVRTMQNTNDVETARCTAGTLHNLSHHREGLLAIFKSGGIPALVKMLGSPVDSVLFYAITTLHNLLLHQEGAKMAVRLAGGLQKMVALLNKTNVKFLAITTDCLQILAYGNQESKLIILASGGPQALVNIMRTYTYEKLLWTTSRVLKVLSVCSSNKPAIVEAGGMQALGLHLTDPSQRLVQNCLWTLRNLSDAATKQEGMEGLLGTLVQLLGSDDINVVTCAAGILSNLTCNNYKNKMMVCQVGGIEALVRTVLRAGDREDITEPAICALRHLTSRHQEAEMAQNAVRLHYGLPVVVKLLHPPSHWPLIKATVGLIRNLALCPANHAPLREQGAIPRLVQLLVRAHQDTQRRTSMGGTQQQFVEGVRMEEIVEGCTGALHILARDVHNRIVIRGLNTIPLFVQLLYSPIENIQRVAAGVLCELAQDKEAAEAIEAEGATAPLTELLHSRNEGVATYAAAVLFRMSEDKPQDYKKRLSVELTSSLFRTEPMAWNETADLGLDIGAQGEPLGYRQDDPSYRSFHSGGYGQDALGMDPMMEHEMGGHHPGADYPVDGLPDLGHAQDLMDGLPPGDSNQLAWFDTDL
# ASSAY NAME: Fluorescence polarization IC50 (beta-catenin / 5FAM-TCF4 10-53 competition)
# Type: binding
# APPLIED CONDITIONS: fluorescence polarization; read-out: beta-Catenin FP IC50
Below, each of the molecules is paired with its reported IC50 value.
Numeric only. Scale: nM

- CC(=O)N1CCC[C@]12CC=CCCCC1(CCCC=CCCCOC(=O)N3CC[C@@](C(=O)N[C@@H](Cc4ccccc4C(F)(F)F)C(=O)N[C@@H](Cc4csc5ccccc45)C(=O)N[C@@H](CCC(=O)N(C)C)C(N)=O)(C3)NC(=O)[C@H](CC(C)C)NC(=O)[C@H](Cc3ccccc3)NC(=O)[C@H](C)NC(=O)[C@H](CCC(=O)N(C)C)NC(=O)[C@H](Cc3cccc(C(=O)O)c3)NC(=O)[C@H](CC(=O)O)NC1=O)NC(=O)[C@H](CC(C)(C)C)NC(=O)[C@H](CC(=O)O)NC2=O (stereo partly drawn) [I-2300]: 6

Report measured IC50; entry is CC(=O)N1CCC[C@]12CC=CCCCC1(CCCC=CCCCOC(=O)N3CC[C@@](C(=O)N[C@@H](Cc4ccsc4)C(=O)N[C@@H](Cc4csc5ccccc45)C(=O)N[C@@H](CCC(N)=O)C(N)=O)(C3)NC(=O)[C@H](CC(C)C)NC(=O)[C@H](Cc3ccccc3)NC(=O)[C@H](C)NC(=O)[C@H](C)NC(=O)[C@H](CN(CC(=O)O)C(=O)C3CCN(C)CC3)NC(=O)[C@H](CC(=O)O)NC1=O)NC(=O)[C@H](CC(C)(C)C)NC(=O)[C@H](CC(=O)O)NC2=O (stereo partly drawn) [I-2235]
40

Report measured IC50; entry is CCOC(=O)C[C@@H]1NC(=O)[C@]2(CC=CCCCC3(CCCC=CCCCOC(=O)N4CC[C@@](C(=O)N[C@@H](Cc5ccsc5)C(=O)N[C@@H](Cc5csc6ccccc56)C(=O)N[C@@H](CCC(N)=O)C(N)=O)(C4)NC(=O)[C@H](CC(C)C)NC(=O)[C@H](Cc4ccccc4)NC(=O)[C@H](C)NC(=O)[C@H](C)NC(=O)[C@H](CC(=O)O)NC(=O)[C@H](CC(=O)O)NC3=O)NC(=O)[C@H](CC(C)(C)C)NC1=O)CCCN2C(C)=O (stereo partly drawn) [I-2356]
5270

Report measured IC50; entry is CC(=O)N1CCC[C@]12CC=CCCCC1(CCCC=CCCCCCC[C@@](C)(C(=O)N[C@@H](Cc3ccccc3)C(=O)N[C@@H](Cc3csc4ccccc34)C(=O)N[C@@H](CCC(N)=O)C(N)=O)NC(=O)[C@H](CC(N)=O)NC(=O)[C@H](Cc3cccc(F)c3)NC(=O)[C@H](C)NC(=O)[C@H](C)NC(=O)[C@H](CCC(=O)O)NC(=O)[C@H](CC(=O)O)NC1=O)NC(=O)[C@H](C)NC(=O)[C@H](CC(=O)O)NC2=O (stereo partly drawn) [I-454]
125

Report measured IC50; entry is CC(=O)N[C@]1(C)CC=CCCCC2(CCCC=CCCCOC(=O)N3CC[C@@](C(=O)N[C@@H](Cc4ccccc4C(F)(F)F)C(=O)N[C@@H](Cc4csc5ccccc45)C(=O)N[C@@H](CCC(N)=O)C(N)=O)(C3)NC(=O)[C@H](CC(C)C)NC(=O)[C@H](Cc3ccccc3)NC(=O)[C@H](C)NC(=O)[C@H](C)NC(=O)[C@H](Cc3cccc(C(=O)O)c3)NC(=O)[C@H](CC(=O)O)NC2=O)NC(=O)[C@H](CC(C)(C)C)NC(=O)[C@H](CC(=O)O)NC1=O (stereo partly drawn) [I-2563]
48

Report measured IC50; entry is CC(=O)N1CCC[C@]12CC=CCCCC1(CCCC=CCCCOC(=O)N3CC[C@@](C(=O)N[C@@H](Cc4ccsc4)C(=O)N[C@@H](Cc4csc5ccccc45)C(=O)N[C@@H](CCC(N)=O)C(N)=O)(C3)NC(=O)[C@H](CC(N)=O)NC(=O)[C@H](Cc3ccccc3)NC(=O)[C@H](C)NC(=O)[C@H](CCCCNC(C)C)NC(=O)[C@H]([C@@H](C)O)NC(=O)[C@H](CC(N)=O)NC1=O)NC(=O)[C@H](CC(C)(C)C)NC(=O)[C@H](CC(=O)O)NC2=O (stereo partly drawn) [I-2005]
357

Report measured IC50; entry is CCCC[C@@H]1NC(=O)[C@H](Cc2ccccc2)NC(=O)[C@H](C)NC(=O)C(C)(C)NC(=O)[C@H](Cc2cccc(C(=O)O)c2)NC(=O)[C@H](CC(=O)O)NC(=O)C2(CCCC=CCCCOC(=O)N3CC[C@@](C(=O)N[C@@H](Cc4ccsc4)C(=O)N[C@@H](Cc4csc5ccccc45)C(=O)N[C@@H](CCC(=O)N(C)C)C(N)=O)(C3)NC1=O)CCCC=CC[C@]1(CCCN1C(C)=O)C(=O)N[C@@H](CC(=O)O)C(=O)N[C@@H](CC(C)(C)C)C(=O)N2 (stereo partly drawn) [I-2551]
8

Report measured IC50; entry is CCOC(=O)C[C@@H]1NC(=O)C2(CCCC=CCCCOC(=O)N3CC[C@@](C(=O)N[C@@H](Cc4ccsc4)C(=O)N[C@@H](Cc4csc5ccccc45)C(=O)N[C@@H](CCC(N)=O)C(N)=O)(C3)NC(=O)[C@H](CC(C)C)NC(=O)[C@H](Cc3ccccc3)NC(=O)[C@H](C)NC(=O)[C@H](C)NC(=O)[C@H](CC(=O)O)NC1=O)CCCC=CC[C@]1(CCCN1C(C)=O)C(=O)N[C@@H](CC(=O)O)C(=O)N[C@@H](CC(C)(C)C)C(=O)N2 (stereo partly drawn) [I-2357]
6990

Report measured IC50; entry is CC(=O)N1CCC[C@]12CC=CCCCC1(CCCC=CCCCOC(=O)N3CC[C@@](C(=O)N[C@@H](Cc4ccsc4)C(=O)N[C@@H](Cc4csc5ccccc45)C(=O)N[C@@H](CCC(N)=O)C(N)=O)(C3)NC(=O)[C@H](CC(C)C)NC(=O)[C@H](Cc3ccccc3)NC(=O)C(C)(C)NC(=O)C(C)(C)NC(=O)[C@H](CC(=O)O)NC(=O)[C@H](CC(=O)O)NC1=O)NC(=O)[C@H](CC(C)(C)C)NC(=O)[C@H](CC(=O)O)NC2=O (stereo partly drawn) [I-1179]
346
